Every entry's value here was drawn from patent US9914737B2.

Target Entity: tankyrase 1 (Homo sapiens)
Construct: purchased Trevigen 4700-096-K
Sequence (O95271 whole entry): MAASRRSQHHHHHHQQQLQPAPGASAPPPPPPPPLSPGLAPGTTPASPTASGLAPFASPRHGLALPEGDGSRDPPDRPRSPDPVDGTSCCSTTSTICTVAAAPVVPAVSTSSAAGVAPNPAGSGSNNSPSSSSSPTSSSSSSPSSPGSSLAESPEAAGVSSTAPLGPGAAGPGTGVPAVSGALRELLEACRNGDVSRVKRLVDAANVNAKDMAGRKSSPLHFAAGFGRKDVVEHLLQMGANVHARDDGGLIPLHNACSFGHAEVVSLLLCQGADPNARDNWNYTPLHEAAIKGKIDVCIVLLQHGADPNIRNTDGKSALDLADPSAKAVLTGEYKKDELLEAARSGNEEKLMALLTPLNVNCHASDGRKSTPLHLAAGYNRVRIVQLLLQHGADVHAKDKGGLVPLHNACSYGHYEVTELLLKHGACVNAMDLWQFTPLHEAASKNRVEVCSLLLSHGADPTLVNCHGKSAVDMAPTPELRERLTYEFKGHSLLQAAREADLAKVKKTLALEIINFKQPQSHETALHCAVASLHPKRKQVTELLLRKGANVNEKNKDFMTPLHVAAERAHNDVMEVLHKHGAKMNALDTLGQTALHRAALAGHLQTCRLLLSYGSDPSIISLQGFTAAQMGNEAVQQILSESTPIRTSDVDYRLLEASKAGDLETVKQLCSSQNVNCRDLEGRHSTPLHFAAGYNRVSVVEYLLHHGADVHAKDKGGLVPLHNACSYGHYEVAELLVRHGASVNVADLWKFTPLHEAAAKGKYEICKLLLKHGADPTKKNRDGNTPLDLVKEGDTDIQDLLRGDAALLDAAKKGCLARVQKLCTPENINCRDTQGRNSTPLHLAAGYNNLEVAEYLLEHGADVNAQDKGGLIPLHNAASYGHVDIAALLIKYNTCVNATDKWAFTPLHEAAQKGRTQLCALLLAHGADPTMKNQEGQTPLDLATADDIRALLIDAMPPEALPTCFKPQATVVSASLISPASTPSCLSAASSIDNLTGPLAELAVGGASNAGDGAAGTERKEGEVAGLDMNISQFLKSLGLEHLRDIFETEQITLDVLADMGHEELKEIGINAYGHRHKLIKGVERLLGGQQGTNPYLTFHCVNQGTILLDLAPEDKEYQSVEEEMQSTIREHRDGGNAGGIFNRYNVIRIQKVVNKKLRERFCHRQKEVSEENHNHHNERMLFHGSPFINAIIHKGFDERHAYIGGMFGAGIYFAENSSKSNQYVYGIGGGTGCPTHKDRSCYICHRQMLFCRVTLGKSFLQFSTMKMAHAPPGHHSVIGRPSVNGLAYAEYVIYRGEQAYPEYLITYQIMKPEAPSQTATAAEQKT
Method Description: Analysis of activity of tankyrase 1 (Trevigen kit, ELISA absorbance at 450 nm)
Type: biochemical
Particulars: tankyrase 1 enzyme, Trevigen kit Cat. No. 4700-096-K, 30 min at rt; read-out: TNKS1 (IC50)
Measured Attribute: IC50 (nM)

molecule="CC(=O)OCCOc1cc(F)c(N2CCN(c3nc4c(nnn4C)c(=O)[nH]3)CC2)c(F)c1 [compound 8]" target_entity="tankyrase 1 (Homo sapiens)" unit_of_measure=nM experimental_result=46.9

P: CN1CCN(Cc2cc(F)c(N3CCN(c4cc5c(nnn5C)c(=O)[nH]4)CC3)c(F)c2)CC1 [compound 61]
Q: Cn1nnc2c(=O)[nH]c(N3CCN(c4c(F)cc(OCCCN5CCCCC5)cc4F)CC3)nc21 [compound 33]
*Q* Task for the reader: decide whether P or Q has the larger IC50. Your choice should be expressed through its label.
*A* Q
(Q: 51.3 nM, P: 28.2 nM)

1: Cn1nnc2c(=O)[nH]c(N3CCN(c4c(F)cc(OCCO)cc4F)CC3)nc21 [compound 7]
2: Cn1nnc2c(=O)[nH]c(N3CCN(c4c(F)cc(OCc5ccccc5)cc4F)CC3)nc21 [compound 3]
*Q* // pick min by IC50: 1 , 2 Your choice should be expressed through its label.
*A* 1

A: COCCOc1cc(F)c(C2=CCN(c3nc4c(nnn4C)c(=O)[nH]3)CC2)c(F)c1 [compound 44]
B: Cn1nnc2c(=O)[nH]c(N3CCN(c4c(F)cc(OC(CO)CCl)cc4F)CC3)nc21 (centres unmarked) [compound 16]
*Q* // pick min by IC50: A , B Your choice should be expressed through its label.
*A* B
(B: 28.6 nM, A: 52.9 nM)

###

Target Entity: tankyrase 1 (Homo sapiens)
Construct: purchased Trevigen 4700-096-K
Method Description: Analysis of activity of tankyrase 1 (Trevigen kit, ELISA absorbance at 450 nm)
Assay type: biochemical
Measured Attribute: IC50 (nM)

// below: answered compounds
molecular_string=Cn1nnc2c(=O)[nH]c(N3CCN(c4ccccc4F)CC3)nc21 unit_of_measure=nM experimental_result=66.7
molecular_string=COCCOc1cc(F)c(N2CCN(c3cc4c(nnn4C)c(=O)[nH]3)CC2)c(F)c1 unit_of_measure=nM experimental_result=22.7

P: CC(C)Oc1cc(F)c(N2CCN(c3nc4c(nnn4C)c(=O)[nH]3)CC2)c(F)c1
Q: Cn1nnc2c(=O)[nH]c(N3CCN(c4c(F)cc(OC5COC5)cc4F)CC3)cc21
*Q* // pick min by IC50: P , Q Your choice should be expressed through its label.
*A* Q
(Q: 22.1 nM, P: 60.9 nM)

###

Target Entity: tankyrase 1 (Homo sapiens)
Construct: purchased Trevigen 4700-096-K
Method Description: Analysis of activity of tankyrase 1 (Trevigen kit, ELISA absorbance at 450 nm)
Format: biochemical
Particulars: tankyrase 1 enzyme, Trevigen kit Cat. No. 4700-096-K, 30 min at rt; read-out: TNKS1 (IC50)
Measured Attribute: IC50 (nM)

// below: answered compounds
compound="Cn1nnc2c(=O)[nH]c(N3CCN(c4c(F)cc(OCCCN5CCCCC5)cc4F)CC3)cc21 [compound 69]" target_entity="tankyrase 1 (Homo sapiens)" measured_attribute=IC50 experimental_result=19.1
compound="Cn1nnc2c(=O)[nH]c(N3CCN(c4c(F)cc(OCCN5CCC(O)CC5)cc4F)CC3)nc21 [compound 42]" target_entity="tankyrase 1 (Homo sapiens)" measured_attribute=IC50 experimental_result=51.4
compound="Cn1nnc2c(=O)[nH]c(N3CCN(c4c(F)cc(OCCN5CCC(O)C5)cc4F)CC3)nc21 (centres unmarked) [compound 41]" target_entity="tankyrase 1 (Homo sapiens)" measured_attribute=IC50 experimental_result=71.3

I: CN(C)CCOc1cc(F)c(N2CCN(c3cc4c(nnn4C)c(=O)[nH]3)CC2)c(F)c1 [compound 56]
II: Cn1nnc2c(=O)[nH]c(N3CCN(c4c(F)cc(OCC(=O)N5CCCC5)cc4F)CC3)nc21 [compound 36]
III: COCCN(C)Cc1cc(F)c(N2CCN(c3nc4c(nnn4C)c(=O)[nH]3)CC2)c(F)c1 [compound 20]
IV: CC(O)c1cc(F)c(N2CCN(c3nc4c(nnn4C)c(=O)[nH]3)CC2)c(F)c1 (centres unmarked) [compound 17]
*Q* Arrange the 4 compounds from largest to smallest IC50. Hello, could you send the labels back in the order asked? Thank you.
*A* III, II, I, IV

P: Cn1nnc2c(=O)[nH]c(N3CCN(c4c(F)cc(OCCN5CCCCC5)cc4F)CC3)cc21 [compound 55]
Q: Cn1nnc2c(=O)[nH]c(N3CCN(c4c(F)cc(OCC(=O)N5CCCC5)cc4F)CC3)cc21 [compound 70]
*Q* Task for the reader: decide whether P or Q has the larger IC50. Your choice should be expressed through its label.
*A* P
(P: 29.3 nM, Q: 15.6 nM)
